Recorded Others in degradation product by acetone-powdered rat small intestine enzyme values for a group of molecules are listed next.
- Test system: acetone-pulverized rat small intestine enzyme
- TEST_DESCRIPTION: Degradation by acetone-pulverized rat small intestine enzyme
- Assay type: biochemical
- TEST_CONDITIONS: pH6.0, 37° C., 18 hours
- Procedure: The non-reducing saccharide preparations PI, PII, PIII, PIV and PV as substrates prepared in Experiment 4 were subjected to pig pancreas alpha-amylase, rice alpha-glucosidase and acetone-pulverized rat small intestine enzyme, all of which were products of Sigma Chemical Co., St Louis, Mo., USA, and the degradation products were analyzed on high-performance liquid chromatography for saccharide composition. […]
Enter your answer as a number in %; do not include the unit.

Here is how some molecules turned out for Others in degradation product by acetone-powdered rat small intestine enzyme.
Measured on acetone-pulverized rat small intestine enzyme, OC[C@H]1O[C@H](O[C@H]2O[C@H](CO)[C@@H](O[C@H]3O[C@H](CO)[C@@H](O[C@H]4O[C@H](CO)[C@@H](O)[C@H](O)[C@H]4O)[C@H](O)[C@H]3O)[C@H](O)[C@H]2O)[C@H](O)[C@@H](O)[C@@H]1O [PII, alpha-maltosyl trehalose] has a documented Others in degradation product by acetone-powdered rat small intestine enzyme of 0.4

Simply: OC[C@H]1O[C@H](O[C@H]2O[C@H](CO)[C@@H](O[C@H]3O[C@H](CO)[C@@H](O)[C@H](O)[C@H]3O)[C@H](O)[C@H]2O)[C@H](O)[C@@H](O)[C@@H]1O [PI, alpha-glucosyl trehalose] , acetone-pulverized rat small intestine enzyme, Others in degradation product by acetone-powdered rat small intestine enzyme = 0.4

Readout Others in degradation product by acetone-powdered rat small intestine enzyme for OC[C@H]1O[C@H](O[C@H]2O[C@H](CO)[C@@H](O[C@H]3O[C@H](CO)[C@@H](O[C@H]4O[C@H](CO)[C@@H](O[C@H]5O[C@H](CO)[C@@H](O[C@H]6O[C@H](CO)[C@@H](O[C@H]7O[C@H](CO)[C@@H](O)[C@H](O)[C@H]7O)[C@H](O)[C@H]6O)[C@H](O)[C@H]5O)[C@H](O)[C@H]4O)[C@H](O)[C@H]3O)[C@H](O)[C@H]2O)[C@H](O)[C@@H](O)[C@@H]1O [PV, alpha-maltopentaosyl trehalose] , test system acetone-pulverized rat small intestine enzyme, was 0.1

# OC[C@H]1O[C@H](O[C@H]2O[C@H](CO)[C@@H](O[C@H]3O[C@H](CO)[C@@H](O[C@H]4O[C@H](CO)[C@@H](O[C@H]5O[C@H](CO)[C@@H](O)[C@H](O)[C@H]5O)[C@H](O)[C@H]4O)[C@H](O)[C@H]3O)[C@H](O)[C@H]2O)[C@H](O)[C@@H](O)[C@@H]1O [PIII, alpha-maltotriosyl trehalose] with acetone-pulverized rat small intestine enzyme: Others in degradation product by acetone-powdered rat small intestine enzyme is 0.4

Kindly consider the entry below.
Observed Others in degradation product by acetone-powdered rat small intestine enzyme on acetone-pulverized rat small intestine enzyme, entry OC[C@H]1O[C@H](O[C@H]2O[C@H](CO)[C@@H](O[C@H]3O[C@H](CO)[C@@H](O[C@H]4O[C@H](CO)[C@@H](O[C@H]5O[C@H](CO)[C@@H](O[C@H]6O[C@H](CO)[C@@H](O)[C@H](O)[C@H]6O)[C@H](O)[C@H]5O)[C@H](O)[C@H]4O)[C@H](O)[C@H]3O)[C@H](O)[C@H]2O)[C@H](O)[C@@H](O)[C@@H]1O [PIV, alpha-maltotetraosyl trehalose] , equals 0.4
